meta.source: PubChem BioAssay (NCI)

tested on: SNB-19 CNS; experiment: NCI-60 one-dose screen, 48 h (100 = growth as untreated, 0 = no growth, -100 = all killed); details: 10 µM unless noted
This is part of a sample that, as a whole, favours compounds with a hit. Of some 83,000 tested, about 20% had one in any assay.
Reported endpoint: growth (%)
Dear colleague, please return just the value in %, with no unit written.

Q) Hello, I am looking for reported growth with SNB-19 CNS for COc1ccc(S(=O)(=O)N2CCN(c3cc4c(cc3F)c(=O)c(C(=O)O)cn4C3CC3)CC2)c(OC)c1 . Could you help?
A) 89.5

Q) Reported growth for SNB-19 CNS, given CCCCNc1nnc(-c2cc(-c3cc4ccccc4o3)nn2-c2ccccc2)o1 ?
A) 91.2

Q) What measured growth is associated with COc1ccc(-c2cn[nH]c2-c2cc(OC)c3c(c2)OCO3)cc1 on SNB-19 CNS?
A) 41.7

Q) Observed growth on SNB-19 CNS for O=C(CNc1c(Cl)cccc1Cl)Nc1ccc(-c2nc3ccccc3s2)cc1 , please.
A) 73.9

Q) Please tell me: growth of CCOC(=O)c1cc(/C(=N\O)c2cc(OC)c(OC)c(OC)c2)n2cc(C)cc(C)c12 , system SNB-19 CNS?
A) 40.5

----------
test system: OVCAR-5 ovarian; test: NCI-60 one-dose screen, 48 h (100 = growth as untreated, 0 = no growth, -100 = all killed); settings: 10 µM unless noted
About 83,000 compounds went through this panel and 20% of them were active in at least one assay; those are over-represented in the sample as a whole.
Below, each entry is listed with its recorded growth.
Give just the number in %; leave the unit off.

compound=O=C(C[N+](=O)[O-])c1ccc(Cl)cc1 reported_endpoint=growth reported_value=110
compound="CCN1C(=O)N(CC)C2C1NN=c1s/c(=C\\c3ccccn3)c(=O)n12 (configuration not stated)" reported_endpoint=growth reported_value=58.9

Next:
Q) Quick check: growth on OVCAR-5 ovarian, item CC(C)C[C@H](NC(=O)[C@H](Cc1ccccc1)n1ccc(N2CCCCC2)cc1=O)B(O)O ?
A) 39.3

----------
Test system: KM12 colon
Experiment: NCI-60 one-dose screen, 48 h
Details: 10 µM unless noted
Procedure: Growth inhibition of the KM12 human tumor cell line is measured as a screen for anti-cancer activity. Cells are grown in 96 well plates and exposed to the test compound for 48 hours. Compounds are tested at a single concentration, which is 10^-5 M for most compounds. The reported endpoint is percent growth (GI% or GIPRCNT), where numbers from 0 - 100% represent growth inhibition, and numbers from -100% - 0 represent cell death. For example, a value of 40 represents 60% growth inhibition. […]
This is part of a sample that, as a whole, favours compounds with a hit. Of some 83,000 tested, about 20% had one in any assay. Activity calls are given as the source filed them. Rule for the calls: active = growth percent below 10; inactive = the rest.
Outcome (select one): Yes = active, No = inactive

compound="COc1ccc(C2CC(c3cccs3)=NN2c2ccc(S(=O)(=O)NC(=O)Nc3ccc(C)cc3)cc2)cc1 (stereo not given)" answer_label=No
compound=Cc1oc2ncnc(Nc3ccccc3)c2c1C(=O)NCCO answer_label=No
compound=COc1ccc2c(c1)NC(=O)CN2c1nc(NC2CC2)nc2ccccc12 answer_label=Yes
compound=COc1ccc(S(=O)(=O)NCCNc2nccc(-c3c(-c4ccccc4)nc4sccn34)n2)cc1 answer_label=Yes
compound="CC[C@H](C)[C@@H]1NC(=O)[C@H]([C@@H](C)O)NC(=O)C(Cc2ccccc2)NC(=O)[C@@H]2CCCN2C(=O)C(C(C)C)NC(=O)C(Cc2ccccc2)NC(=O)CNC(=O)[C@@H]2CCCN2C1=O (stereo not given in full)" answer_label=No

Q) // return assay outcome for CC(Br)C(Br)c1cc2c(cc1Br)OCO2 (stereo not given)
A) No

Q) For this compound, state the assay outcome: OC1CC2c3ccccc3C1c1ccccc12 (stereo not given)
A) No

Q) Record request — test call for COc1ccc(-c2cn[nH]c2-c2cc(OC)c3c(c2)OCO3)cc1
A) No

Q) Which outcome did this test record for the compound COC12CC(=O)C(C(C)=O)=C(O)C1(C)c1c(O)c(C)c(O)c(C(C)=O)c1O2 (stereo not given) ?
A) No

Q) Outcome? COc1cccc(-c2nc3sccn3c2-c2ccnc(NCCCNS(=O)(=O)c3ccccc3)n2)c1
A) No

----------
tested on: OVCAR-5 ovarian; experiment: NCI-60 one-dose screen, 48 h (100 = growth as untreated, 0 = no growth, -100 = all killed); conditions: 10 µM unless noted
This is part of a sample that, as a whole, favours compounds with a hit. Of some 83,000 tested, about 20% had one in any assay.
Values of growth strictly less than 90% map to YES, and values of at least 90% map to NO.

# count of solved cases: 3
compound=CCN(CC)CCC(=O)c1cccc2ccccc12 answer_label=NO
compound=COc1cc2c3c(c(=O)oc2cc1OS(=O)(=O)c1ccc(C(F)(F)F)cc1)CCCCC3 answer_label=YES
compound=C=CCn1c(C)nc2ccc(Nc3nc(Nc4ccc(F)cc4)nc4ccccc34)cc21 answer_label=YES

Q) Bench note: check whether COc1cc(Cn2c(-c3nonc3N)nc3ccccc32)ccc1C shows growth below 90%
A) YES

Q) Quick check: growth of COC(=O)[C@H]1[C@H](OC)[C@@H](OC(=O)/C=C/c2ccncc2)CC2CN3CCc4c([nH]c5cc(OC)ccc45)[C@@H]3C[C@@H]21 (stereo partly drawn) under 90%?
A) NO

Q) Regarding Cc1ccc(C2=NN(c3ccc(S(N)(=O)=O)cc3)C(c3cn(-c4ccccc4)nc3-c3ccccc3)C2)cc1 (stereo not drawn) , kindly confirm whether its growth is beneath 90%.
A) NO

Q) State whether 90% exceeds growth recorded for N#CC1=C(N)n2nc(-c3ccncc3)nc2NC1c1cccc2ccccc12 (stereo not drawn) .
A) NO

----------
system: SF-539 CNS; test: NCI-60 one-dose screen, 48 h (100 = growth as untreated, 0 = no growth, -100 = all killed); conditions: 10 µM unless noted
The panel holds about 83,000 compounds, 20% with a hit somewhere; the sample as a whole holds those more often.
Reported endpoint: growth (%)
Reply numerically in %, unit not repeated.

Q) What value of growth on SF-539 CNS does Cc1nc2sccn2c1-c1csc(Nc2ccccc2Cl)n1 have?
A) 52

----------
system: SF-295 CNS; experiment: NCI-60 one-dose screen, 48 h (100 = growth as untreated, 0 = no growth, -100 = all killed); settings: 10 µM unless noted
Compounds without any hit were thinned out: in the full panel of roughly 83,000, 20% have a hit.
// boundary case: growth equal to 10% maps to -1; strictly smaller maps to 1

Check out these entries, answers already filled in.
compound="CC(=O)Nc1ccc(S(=O)(=O)N2C(=O)CCC2C(=O)Nc2ccccc2)cc1 (stereo not given)" answer_label=1
compound="COc1cc(C2C=C(C)N=C3SC=C(C)N32)cc(OC)c1OC (stereo not given)" answer_label=1
compound=Clc1nc2ccccc2nc1CI answer_label=-1
compound=O=C(CNc1c(Cl)cccc1Cl)Nc1ccc(-c2nc3ccccc3s2)cc1 answer_label=-1
compound=NC(=O)c1cccc(N2Cc3ccccc3OC3=C2C(=O)c2c(O)ccc(O)c2C3=O)c1 answer_label=-1

Q) Please state whether growth is below 10% for Cc1cc(C(=O)CSc2nc3ccccc3c(=O)[nH]2)c(C)n1C
A) -1

Q) Hello, I'm reviewing records and need to know if growth of c1cncc(CNc2ccccc2-c2nnc(Nc3ccc4c(c3)OCCO4)o2)c1 is below 10%. Could you check?
A) -1

Q) Lab note: growth threshold 10%. Does this compound come in strictly under it? CC(Cc1nnc(SCC(=O)Nc2ccc(I)cc2)n1N)c1ccccc1 (stereo not given)
A) -1

Q) Would you kindly verify if growth of CCOC(=O)C(Cc1ccccc1)n1c(O)c(C=Nc2ccc(C(=O)OCCN(CC)CC)cc2)sc1=O (stereo not given) is strictly less than 10%?
A) -1

Q) Strictly below 10%: is that where growth of N=C(N)c1ccc(-c2ccc(-c3ccc(Cl)cc3)o2)nc1 sits?
A) 1

----------
test system: RXF 393 renal; assay: NCI-60 one-dose screen, 48 h (100 = growth as untreated, 0 = no growth, -100 = all killed); conditions: 10 µM unless noted
About 83,000 compounds went through this panel and 20% of them were active in at least one assay; those are over-represented in the sample as a whole.
Reported endpoint: growth (%)
Could you give me the number in %? Just the number is fine.

In the examples that follow, each entry is paired with its recorded growth.
item_smiles=O=c1oc2cc(OS(=O)(=O)c3ccccc3)c(Cl)cc2c2c1CCCCCC2 reported_value=90.8
item_smiles=O=c1[nH]c2ccccc2cc1-c1nnc(Cc2ccccc2)o1 reported_value=76.1

// below: growth requested for another compound
Q) Notebook: pull reported growth for RXF 393 renal, entry O=C(Nc1ccc(I)cc1)c1cc([N+](=O)[O-])ccc1O
A) 7.47
